Species: Rattus norvegicus
Assay: Open TG-GATES - Regimen: Single
Type: toxicity, organism-based, Sprague-Dawley
Parameters: regimen Single, gender Male, age 6 weeks
Conditions: in vivo, po, 0 mg/kg, 3 h, tissue Blood, route gavage, dose level Control
The following compounds are listed with their measured Bas values.
Give your result in % as a bare value.

Which Bas value is on record for CC(C)N(CCC(C(N)=O)(c1ccccc1)c1ccccn1)C(C)C (stereo not given) [DISOPYRAMIDE] ?
0

Same question, OCCOCCN1CCN(C(c2ccccc2)c2ccc(Cl)cc2)CC1 (stereo not given) [HYDROXYZINE] this time
0

Same question, CCC1(c2ccccc2)C(=O)NC(=O)NC1=O this time
0.4

Same question, O=NN(CCCl)C(=O)NC1CCCCC1 this time
0

Same question, ClC(Cl)(Cl)Cl [CARBON TETRACHLORIDE] this time
0
